- system: M₁ muscarinic receptors (cerebral cortex) (Rattus norvegicus, UniProt P08482)
- Sequence (P08482 1-460): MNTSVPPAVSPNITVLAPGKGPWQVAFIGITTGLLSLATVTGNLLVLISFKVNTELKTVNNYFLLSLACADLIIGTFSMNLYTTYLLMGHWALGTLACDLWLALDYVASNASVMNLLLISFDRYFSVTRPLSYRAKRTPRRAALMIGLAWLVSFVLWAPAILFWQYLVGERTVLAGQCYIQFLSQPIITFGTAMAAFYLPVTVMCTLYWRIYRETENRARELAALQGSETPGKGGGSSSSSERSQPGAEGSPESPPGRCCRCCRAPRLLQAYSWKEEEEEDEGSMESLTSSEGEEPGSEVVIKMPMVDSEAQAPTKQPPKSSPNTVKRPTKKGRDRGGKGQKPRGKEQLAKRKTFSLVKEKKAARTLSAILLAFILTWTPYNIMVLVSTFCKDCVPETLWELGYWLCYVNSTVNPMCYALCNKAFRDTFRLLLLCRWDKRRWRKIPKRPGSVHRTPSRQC
assay metric: pKd
Just the number, please; pKd means minus log10 of the concentration in mol/L.

CN1CCC(C(=O)C2c3ccccc3NC(=O)c3ccccc32)CC1 (stereo not drawn) : 8.68

## Task Returns the measured pKd for the input compound. Input: CN1CCC(C(=O)C2c3ccccc3C(=O)Nc3ccc(Cl)nc32)CC1 (stereo not drawn)
## Result 8.50

## Task Tell me the measured pKd of CN1CCC(C(=O)C2c3ccccc3C(=O)Nc3cccc(F)c32)CC1 (stereo not drawn) , please.
## Result 8.66
